Recorded % Relative activity (WT antibody/test antibody) values for a group of binders are listed next.
Target system: T1, human TNFR2 on the surface of CHO-TNFR2 cells (human, UniProt P20333 23-461)
T1 construct: whole, on cells
T1 sequence (looked up): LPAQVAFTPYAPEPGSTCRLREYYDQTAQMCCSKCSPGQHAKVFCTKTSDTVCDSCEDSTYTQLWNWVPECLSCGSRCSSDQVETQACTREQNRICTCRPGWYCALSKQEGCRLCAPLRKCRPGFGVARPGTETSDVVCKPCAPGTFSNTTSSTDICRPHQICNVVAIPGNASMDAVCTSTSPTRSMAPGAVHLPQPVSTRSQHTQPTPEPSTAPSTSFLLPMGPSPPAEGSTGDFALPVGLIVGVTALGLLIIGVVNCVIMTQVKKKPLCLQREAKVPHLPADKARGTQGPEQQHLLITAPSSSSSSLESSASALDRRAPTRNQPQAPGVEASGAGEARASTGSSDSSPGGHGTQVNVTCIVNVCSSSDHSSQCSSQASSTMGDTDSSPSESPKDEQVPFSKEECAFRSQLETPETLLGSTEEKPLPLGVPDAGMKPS
Assay comment: competition flow cytometry on CHO-TNFR2 cells, competitor TNFα-biotin; IC50 against 001-WT
Measurement label: % Relative activity (WT antibody/test antibody) (%)

Binder	Reading
001-Hu5 (antibody, V domains shown, Humanized form of #001; also called VH1 + VL4) VH: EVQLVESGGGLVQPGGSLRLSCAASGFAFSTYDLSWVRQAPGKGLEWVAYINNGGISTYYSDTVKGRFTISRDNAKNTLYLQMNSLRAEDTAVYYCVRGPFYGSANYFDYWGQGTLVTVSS VL: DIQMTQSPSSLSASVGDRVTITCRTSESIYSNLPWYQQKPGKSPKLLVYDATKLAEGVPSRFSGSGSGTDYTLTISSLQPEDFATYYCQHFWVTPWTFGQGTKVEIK	86.2
001-Hu2 (antibody, V domains shown, Humanized form of #001; also called VH2 + VL2) VH: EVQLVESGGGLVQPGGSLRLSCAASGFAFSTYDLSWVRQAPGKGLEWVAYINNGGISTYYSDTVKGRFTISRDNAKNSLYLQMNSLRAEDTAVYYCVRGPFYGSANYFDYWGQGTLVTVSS VL: DIQMTQSPSSLSASVGDRVTITCRTSESIYSNLPWYQQKPGKSPKLLIYDATKLAEGVPSRFSGSGSGTDFTLTISSLQPEDFATYYCQHFWVTPWTFGQGTKVEIK	84.3
001-Hu3 (antibody, V domains shown, Humanized form of #001; also called VH1 + VL3) VH: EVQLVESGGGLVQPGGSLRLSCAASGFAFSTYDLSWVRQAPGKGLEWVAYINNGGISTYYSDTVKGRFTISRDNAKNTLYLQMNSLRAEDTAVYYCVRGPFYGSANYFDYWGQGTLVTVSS VL: DIQMTQSPSSLSASVGDRVTITCRTSESIYSNLPWYQQKPGKAPKLLIYDATKLAEGVPSRFSGSGSGTDYTLTISSLQPEDFATYYCQHFWVTPWTFGQGTKVEIK	100
001-Hu1 (antibody, V domains shown, Humanized form of #001; also called VH1 + VL1) VH: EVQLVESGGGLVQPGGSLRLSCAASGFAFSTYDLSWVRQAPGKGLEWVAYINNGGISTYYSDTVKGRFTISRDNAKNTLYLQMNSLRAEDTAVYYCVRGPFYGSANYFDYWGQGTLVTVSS VL: DIQMTQSPSSLSASVGDRVTITCRTSESIYSNLPWYQQKPGKAPKLLLYDATKLAEGVPSRFSGSGSGTDYTLTISSLQPEDFATYYCQHFWVTPWTFGQGTKVEIK	98.3
